- EXPERIMENTAL_CONTEXT: in 2-butanone, 313.15 K
RECORDED_METRIC: solubility (mole fraction)
The answer should be written as a number, with no unit following it.

Q) Dear colleague, I am looking for the recorded solubility (mole fraction) of the following compound: Cc1ccc(NC(=O)C(C)Cl)cc1 (stereo unspecified)
A) 0.173

----------
- EXPERIMENTAL_CONTEXT: in acetone, 283.37 K
RECORDED_METRIC: solubility (mole fraction)

Q) I would be grateful if you could share the reported solubility (mole fraction) for Cc1ccc(NC(=O)C(C)Cl)cc1 (stereo unspecified) .
A) 0.0767

----------
- EXPERIMENTAL_CONTEXT: in toluene, 278.33 K
RECORDED_METRIC: solubility (mole fraction)
Please reply with the number alone, leaving off any unit.

Q) Fill in the blank: the reported solubility (mole fraction) of Cc1ccc(NC(=O)C(C)Cl)cc1 (stereo unspecified) is ____.
A) 0.00719

----------
- EXPERIMENTAL_CONTEXT: in toluene, 301.24 K
RECORDED_METRIC: solubility (mole fraction)
Lab note: record the figure alone, no unit after it.

Q) Form field: reported solubility (mole fraction) of Cc1ccc(NC(=O)C(C)Cl)cc1 (stereo unspecified)
A) 0.02

----------
- EXPERIMENTAL_CONTEXT: in acetone, 287.02 K
RECORDED_METRIC: solubility (mole fraction)
Hey, just send me the number, nothing else.

Q) For the molecule shown here, Cc1ccc(NC(=O)C(C)Cl)cc1 (stereo unspecified) , give the reported solubility (mole fraction).
A) 0.0811

----------
- EXPERIMENTAL_CONTEXT: in toluene, 273.24 K
RECORDED_METRIC: solubility (mole fraction)
In your answer, state the number alone without any accompanying words.

Q) GET /values?readout=solubility (mole fraction)&item= Cc1ccc(NC(=O)C(C)Cl)cc1 (stereo unspecified)
A) 0.00517

----------
- EXPERIMENTAL_CONTEXT: in acetone, 315.55 K
RECORDED_METRIC: solubility (mole fraction)
// keep it numeric: no unit symbol after the value

Q) // returns reported solubility (mole fraction) for input Cc1ccc(NC(=O)C(C)Cl)cc1 (stereo unspecified)
A) 0.155

----------
- EXPERIMENTAL_CONTEXT: in 2-butanone, 275.52 K
RECORDED_METRIC: solubility (mole fraction)
Could you respond with only the numeric value?

Q) Name the recorded solubility (mole fraction) for Cc1ccc(NC(=O)C(C)Cl)cc1 (stereo unspecified) .
A) 0.0829

----------
- EXPERIMENTAL_CONTEXT: in acetone, 302.89 K
RECORDED_METRIC: solubility (mole fraction)
# output: bare number, no unit

Q) # solubility (mole fraction) lookup, item Cc1ccc(NC(=O)C(C)Cl)cc1 (stereo unspecified)
A) 0.114

----------
- EXPERIMENTAL_CONTEXT: in toluene, 315.66 K
RECORDED_METRIC: solubility (mole fraction)

Q) What solubility (mole fraction) value was documented for this molecule, Cc1ccc(NC(=O)C(C)Cl)cc1 (stereo unspecified) ?
A) 0.0413

----------
- EXPERIMENTAL_CONTEXT: in toluene, 290.93 K
RECORDED_METRIC: solubility (mole fraction)
Just the number.

Q) # input compound: Cc1ccc(NC(=O)C(C)Cl)cc1 (stereo unspecified) ; wanted: its solubility (mole fraction)
A) 0.0125
